Origin of the recorded values: ChEMBL document CHEMBL1157539

System: Plasmodium falciparum
Test: GSK_TCMDC: Inhibition of Plasmodium falciparum 3D7 in whole red blood cells, using parasite LDH activity as an index of growth. Test compounds present at 2uM
Type: functional

{"columns": ["compound", "units of measure", "Inhibition"],
 "data": [
  ["O=C(O)C(F)(F)F.c1cc(CN2CCN(c3ccncc3)CC2)cc(-c2cccc(-c3nc4ccccc4[nH]3)c2)c1", "%", 100],
  ["CN1CCC(C(=O)Nc2cccc(-c3ccc(-c4nc5cc(F)ccc5[nH]4)cc3)c2)CC1", "%", 100],
  ["CC1(C)N=C(N)N=C(N)N1c1ccc(Cl)cc1.O=C(O)c1cc2ccccc2c(Cc2c(O)c(C(=O)O)cc3ccccc23)c1O", "%", 95],
  ["Cc1cccc2nc(C(=O)Nc3nc(CN4CCC(C)CC4)cs3)cn12", "%", 94],
  ["CC(C)CCN1CCCN(Cc2ccc(C(=O)Nc3ccc(Cl)cc3)cc2)CC1.O=C(O)C(F)(F)F", "%", 94],
  ["CCCC(C)NC[C@@H](O)[C@H](Cc1ccccc1)NC(=O)c1cc(C2CCCC2)cc(N2CCCCS2(=O)=O)c1.Cl (some centres undefined)", "%", 98],
  ["O=C(CCCCCNC(=O)c1ccc(O)c(-c2ccc(Cl)c(Cl)c2)c1)NCCN1CCOCC1", "%", 95],
  ["CC(C)COc1ccc(Cl)cc1Cc1ccc(-c2nc3ccc(F)cc3[nH]2)o1", "%", 97],
  ["COc1cc(Nc2ccnc3cc(-c4ccccn4)ccc23)cc(OC)c1OC.Cl", "%", 91]
]}
